# assay_remarks: Solubility of the compound in PBS buffer at pH 7.4
# Assay type: physicochemical
For each record, write down the corresponding solubility.
Numbers only, in µg/mL.

The following compounds have reported results that may help.
- compound: "CC(C)CCCc1c(O)ccc2c1O[C@]1(C2=O)C(Cl)=C(Cl)C(=O)N1C [ARMENIASPIROLE B]"
  u: "µg/mL"
  endpoint_value: 10
- compound: "CCCCCCc1c(O)ccc2c1O[C@]1(C2=O)C(Cl)=C(Cl)C(=O)N1C [ARMENIASPIROLE A]"
  u: "µg/mL"
  endpoint_value: 25

Now for a further compound.
What does the data say about its solubility? Entry: CC[C@H](C)CCCc1c(O)ccc2c1O[C@]1(C2=O)C(Cl)=C(Cl)C(=O)N1C [ARMENIASPIROLE C]
5

====

# assay_remarks: Drug degradation in PBS buffer over 24 hrs in presence of i-BuNH2
# Format: physicochemical
# particulars: PBS buffer with i-BuNH2; read-out: Drug degradation
measured_parameter: degraded at 24 h

What does the data say about its degraded at 24 h? Entry: CCCCCCc1c(O)ccc2c1O[C@]1(C2=O)C(Cl)=C(Cl)C(=O)N1C [ARMENIASPIROLE A]
< 10%

====

# assay_remarks: Clearance in Swiss mouse at 7.5 mg/kg, iv
# Format: ADME, organism-based
# Set-up: dose 7.5 mg/kg, route intravenous
# particulars: in vivo
measured_parameter: clearance (mL/min/kg)
Numbers only, in mL/min/kg.

What does the data say about its clearance? Entry: CCCCCCc1c(O)ccc2c1O[C@]1(C2=O)C(Cl)=C(Cl)C(=O)N1C [ARMENIASPIROLE A]
20

====

# assay_remarks: Volume of distribution at steady state in Swiss mouse at 7.5 mg/kg, iv
# Assay type: ADME, organism-based
# Set-up: dose 7.5 mg/kg, route intravenous
# particulars: in vivo, read-out: Vdss
measured_parameter: Vd (L/kg)
Give bare numbers, in L/kg.

What does the data say about its Vd? Entry: CCCCCCc1c(O)ccc2c1O[C@]1(C2=O)C(Cl)=C(Cl)C(=O)N1C
2.4
